The measured values listed here are drawn from the supplement of paper PMC10567573.

B1: IQUB (parent)
chain: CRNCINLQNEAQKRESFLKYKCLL

- Variants of: B1
- Protocol text: protein stability index of a GFP-peptide fusion (GPS, HEK-293T) (PSI 1-6); higher = more stable;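 further: lentivirally expressed fusions sorted by FACS into six bins by GFP to DsRed ratio, PSI derived from sequencing read proportions per bin multiplied by bin number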
- Particulars: c terminus: a fixed tail appended
Response key: MET means protein stability index >= 2; NOT MET means protein stability index < 2.

Some entries whose results are on file:
>  <Variant key>
I5N

>  <Class assignment>
MET

$$$$
>  <Variant key>
N3S

>  <Class assignment>
MET

$$$$
>  <Variant key>
L18N

>  <Class assignment>
MET

$$$$

Hi team, for L7M , is the recorded protein stability index at or above 2?
MET

Hi team, for K21P , is the recorded protein stability index at or above 2?
NOT MET

Hi team, for S16H , is the recorded protein stability index at or above 2?
MET
